Just for reference, paper PMC6937593 is where these values come from.

- measurement notes: In vivo PK in mice
- Set-up: species or system mouse
- conditions used: mouse plasma, single oral gavage dose 50 mg/kg
Would you mind telling me the reported Cmax of each entry?
Numbers only, in µM.

compound: NCc1ccc(S(=O)(=O)c2cccc(S(=O)(=O)N3CCCC3)c2)s1 [8d]
Cmax, µM: 0.83

compound: NCc1ccc(S(=O)(=O)c2ccc3ccccc3c2)s1 [3g]
Cmax, µM: 15

compound: NCc1ccc(S(=O)(=O)c2cccc(S(=O)(=O)N3CCC[C@H]3CO)c2)s1 [8e]
Cmax, µM: 1.5

compound: CC(C)(C)c1cc(S(C)(=O)=O)cc(S(=O)(=O)c2ccc(CN)s2)c1 [9a]
Cmax, µM: 16

compound: CC(C)(C)Oc1cc(S(C)(=O)=O)cc(S(=O)(=O)c2ccc(CN)s2)c1 [9b]
Cmax, µM: 6.3

// batch mode: one Cmax value per listed entry
1. CS(=O)(=O)c1ccc(S(=O)(=O)c2ccc(CN)s2)cc1-c1ccccc1 [9k]
2. Cl.Cl.Cn1cc(-c2cc(S(=O)(=O)c3ccc(CN)s3)ccc2S(C)(=O)=O)cn1 [9j]
3. CC(=O)NCCS(=O)(=O)c1ccc(S(=O)(=O)c2ccc(CN)s2)cc1.Cl [8j]
4. Cc1ccc(-c2cc(S(=O)(=O)c3ccc(CN)s3)ccc2S(C)(=O)=O)cc1.Cl [9l]

Outgoing:
1. 1.6
2. 9.6
3. 0.38
4. 9.4
